The reported measurements were obtained from the supplement of paper PMC6555819.

Test system: LXRa homodimer (NR concentration 270 nM)
Experimental Protocol: PBM binding z-score (relative to random genomic background probes); higher = stronger binding; sequences stand for … in GC…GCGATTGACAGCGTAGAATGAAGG
Label yes (1) when PBM binding z-score is at or above -0.2; otherwise label no (0).

Item Sequence	Label
CCTAGGAGGCCAATCTGGGTCACTCAAGGCTTGA	no (0)
TTTTGTAGATCAAAGGTTAAGAAAGCCGAAGCCT	yes (1)
AGAATCAGGTTAAGATCAGGGAAACAGAATACAT	yes (1)
GATACAGGGTCAGCTAGACGCCAGAGTATGGAAA	no (0)
GATACAGGGTCAGCTAGAGGCCAGAATATGGAAA	yes (1)
AGAACGAGGGAAATGAGTTGATAGCACGGGTGGC	no (0)
ACAGACAGGTGATGAAGGTAACTTAGGCTATCAT	no (0)
GTACCAAGGTGAATAGGTCGTTGTTGAGTAGGCG	yes (1)
CGAACTAGGTCATTGACAGGACAGCGAATAGTAA	yes (1)
CTCGAAAGGTCGCTTGAGGTGAGTATACGGATAA	no (0)
TCGAGTTGGTTAGGGGCATTCAGAATGGCGTCGA	no (0)
TAGCCTAGGTCATGGGCCACTATACCACGCGAAC	yes (1)

---

# maps each entry to its PBM binding z-score
Test system: PPARg DBDmut:RXRa IVT, anti-PPARg (DBD mutation: PPARg1 K132A/R137A, NR concentration 270 nM, RXRa partner concentration 90 nM)
Experimental Protocol: PBM binding z-score (relative to random genomic background probes); higher = stronger binding; sequences stand for … in GC…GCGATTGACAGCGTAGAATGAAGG

Item Sequence	PBM binding z-score
CCTATTAGTTCACCATAAGGGCAACCGAAGCTCG	0.806
GGAACGATGGCAAGTTGATAGCAGAGTTTGATGG	-1.07
TCATATAGGTAATACAGGTGATAGTCGGCATCTA	1.19
CCTGCTAGGTCAATGATCAGCTAAAGCAGCTCGC	-0.369
TAGCCTAGGTCATTCAGGGTCCAGTATAGAAAGC	0.533
ATCTCTAGGTAAAAGTTCAGTGACTCCCGAGGAT	1.46
TCTACTTGGTCAAAGGTCACACACTCGAAATGCG	2.43
CCTGCTAGGTCATGGTCTGCTAATCTACAGTATG	0.818
TAGCTTAGGTCATTCAGGGGCCAGTATAGAAAGC	0.465
AGTCAAAGTACACTAGGTAACGTAAGATTCAGCT	0.868
AGAATGAGGTTATTAAGATCAGGGAATTGCGGTC	1.04
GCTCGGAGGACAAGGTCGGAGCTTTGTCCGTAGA	-1.21

---

Listing of recorded PBM binding z-score by entry.
System: RARb:RXRa (NR concentration 270 nM, RXRa partner concentration 90 nM)
Experimental Protocol: PBM binding z-score (relative to random genomic background probes); higher = stronger binding; sequences stand for … in GC…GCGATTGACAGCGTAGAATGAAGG
Measure: PBM binding z-score

Item Sequence	Endpoint Result
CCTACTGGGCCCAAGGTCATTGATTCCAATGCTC	2.79
TCGAGTAGGTTAGTCGGGTCATTCAGCCAACATA	1.79
CATAGTTGGTCAGGAGGTCACACACCGGATATGA	3.73
TAGCCTAGGTCATTCGGGCCAGTATAGTGTCGGC	3.74
ACAGACAGGTGATGAATGTAACTCAGGCTATCAT	0.0754
CGAACTAGGTCAAGGACTGTGAATCTCCGCACGC	4.01
ATCTCTAGGTAAGACTTAGTTCAGTGAAGAACGC	0.573
TCTTGTAGATCAAAGGTTTAGAAAGCCGAAGCCT	-0.0359
ATCTCTGGGTAACAAGTTCAGTGAAAGAGAGGAC	1.75
CGTCCAAGGACAAGGTCAGTGAAAGAGACTCGAA	3.93
CGAACTAGGTCTTCCAGGACAGTGAATACATTGA	0.384
ACTAGCAGGGCAAGGGTCACTCAAGATTAGTCCG	3.46

---

System: PXR homodimer (NR concentration 270 nM)
Experimental Protocol: PBM binding z-score (relative to random genomic background probes); higher = stronger binding; sequences stand for … in GC…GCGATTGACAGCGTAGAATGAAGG
Some sequences, each annotated with its measured PBM binding z-score.
Measure: PBM binding z-score

Item Sequence	System Under Test	Measure	Endpoint Result
ACTTACAGGTCAACGAGGTTATAGCACGCGTATA	PXR homodimer (NR concentration 270 nM)	PBM binding z-score	5.38
TCGAGTAGGTTCGTCGGGGCATTCAGCCAACATA	PXR homodimer (NR concentration 270 nM)	PBM binding z-score	-0.361
TCATATAGGTAAACAAGTGAAAGTCCGTAAGTTA	PXR homodimer (NR concentration 270 nM)	PBM binding z-score	0.525
TCTTGTAGATCAACAGGAGGTTAAGTAAGATCGA	PXR homodimer (NR concentration 270 nM)	PBM binding z-score	-0.272
CCAGACAGGTGAGAATGTAACTCAGCCTCGATTA	PXR homodimer (NR concentration 270 nM)	PBM binding z-score	0.0874
CTCGAGAGGTCGGTTGAGGTGAGTATACGGATAA	PXR homodimer (NR concentration 270 nM)	PBM binding z-score	0.389
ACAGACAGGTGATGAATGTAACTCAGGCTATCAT	PXR homodimer (NR concentration 270 nM)	PBM binding z-score	-0.0195
CGTCCAAGGTCAATGCTAGGTCAGTGATAGCATT	PXR homodimer (NR concentration 270 nM)	PBM binding z-score	2
CCTCAAAGTTCAAGGTAACGTAACAGAAAGCAGC	PXR homodimer (NR concentration 270 nM)	PBM binding z-score	2.53
CCGACTGGGGCAATGTTACCATAACGCACAGCCA	PXR homodimer (NR concentration 270 nM)	PBM binding z-score	-0.41
CGTCAAAGTTTAAGGTAACGTAACAGAAAGCAGC	PXR homodimer (NR concentration 270 nM)	PBM binding z-score	0.0704
CCGACTGGGGCAGAAAGGTTACCCTACCATCCGG	PXR homodimer (NR concentration 270 nM)	PBM binding z-score	-0.304
GCTATTAGTTGAAAGTGCAACCGAATGATTCTCG	PXR homodimer (NR concentration 270 nM)	PBM binding z-score	0.384
TCTATTAGTTGAAGGGGAACCGACGAGTCCGTTT	PXR homodimer (NR concentration 270 nM)	PBM binding z-score	1.09
TCGAGTAGGTCAGTCGGGGCATTCAGCCAACATA	PXR homodimer (NR concentration 270 nM)	PBM binding z-score	0.855
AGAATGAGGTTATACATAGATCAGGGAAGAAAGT	PXR homodimer (NR concentration 270 nM)	PBM binding z-score	0.76
CCTCGGAGGACAACAGGAGGTCAGAGGTGCCAGA	PXR homodimer (NR concentration 270 nM)	PBM binding z-score	0.719
AGAATGAGGTTAAGATCAGGGATACAGAATACAT	PXR homodimer (NR concentration 270 nM)	PBM binding z-score	0.547
ATCGATAGGTCGAGGTGAGTATAGAGAAAGGGAA	PXR homodimer (NR concentration 270 nM)	PBM binding z-score	-0.0359
ATCGAAAGGTCGAGGTAAGTATAGAGAAAGGGAA	PXR homodimer (NR concentration 270 nM)	PBM binding z-score	0.464
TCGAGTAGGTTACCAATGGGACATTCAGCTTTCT	PXR homodimer (NR concentration 270 nM)	PBM binding z-score	-0.84
AATACAGGGTCACCAGGCCAGAGTAGGTACGAAT	PXR homodimer (NR concentration 270 nM)	PBM binding z-score	0.26
CCGACTGGGGCATCAGGTTACCATAAGCCAGCCC	PXR homodimer (NR concentration 270 nM)	PBM binding z-score	-0.821
TCTTGTAGATCAGCAGGTTAAGATAGCTGGCCAA	PXR homodimer (NR concentration 270 nM)	PBM binding z-score	-0.37
GCTAGCAGGCCATTGGGGTCACTCAATGACGGGC	PXR homodimer (NR concentration 270 nM)	PBM binding z-score	8.59
CGAACTAGGACAGAACAGGACAGTGAAGGATGAT	PXR homodimer (NR concentration 270 nM)	PBM binding z-score	-0.302

---

Tested on: PXR homodimer (NR concentration 270 nM)
Experimental Protocol: PBM binding z-score (relative to random genomic background probes); higher = stronger binding; sequences stand for … in GC…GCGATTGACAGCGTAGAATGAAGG
Measure: PBM binding z-score

Item Sequence	Measure	Endpoint Result
TCTAGCAGGCCAGAGGGTGACTCAAGAGGTACGG	PBM binding z-score	-0.839
CTCGAAAGGGCGGTTGAGGTGAGTATACGGATAA	PBM binding z-score	0.128
TGCCAAAGTTCAAAGGTAACGTAAGTATCCACAC	PBM binding z-score	4.67
GCTGCTCGGTCAGGTTGGTCAGCTAACGGGTACG	PBM binding z-score	-0.841
CGAACTAGGTCTTTGACAGGACAGTGAATAGTAA	PBM binding z-score	-0.19
TCGAGTAGGTTAGTCGGGGCTTTCAGCCAACATA	PBM binding z-score	-0.898
